- Tested on: Arabidopsis thaliana
- experimental protocol: MOA1 biochemical (metabolite) profiling by LC-MS and GC-MS of sprayed Arabidopsis
- stated conditions: MOA1, 20 min and 1 hour after spraying
assay readout: stress-related (commonly regulated) metabolites

molecule | target under test | recorded value
CP(=O)(O)CCC(N)C(=O)O (centres unmarked) [Glufosinate] | Arabidopsis thaliana | Only a few, if any
CNc1cnn(-c2cccc(C(F)(F)F)c2)c(=O)c1Cl [Norflurazon] | Arabidopsis thaliana | Only a few, if any
CC(C)C1(C)N=C(c2ncccc2C(=O)O)NC1=O (centres unmarked) [Imazapyr] | Arabidopsis thaliana | Only a few, if any

Origin of the recorded values: patent US20040024543A1
